# METHOD DESCRIPTION: Short-term stability in spiked pooled human plasma (bench-top, 4 °C, 56 °C)
# RUN PARAMETERS: validation standard LLOV
MEASURED PROPERTY: Short-time stability (24h, RT, with daylight) Accuracy [%] (%)
Quick note: give the figure in %, leave out the unit.

Prompt: Item "NC(=O)c1cccc2cn(-c3ccc([C@@H]4CCCNC4)cc3)nc12" has what recorded Short-time stability (24h, RT, with daylight) Accuracy [%]?
Completion: 92.3

Prompt: Looking for the measured Short-time stability (24h, RT, with daylight) Accuracy [%] of "Cc1c(C(=O)Nc2ccc(N3C[C@@H](C)O[C@@H](C)C3)nc2)cccc1-c1ccc(OC(F)(F)F)cc1" , can you help?
Completion: 96.2

Prompt: Reported Short-time stability (24h, RT, with daylight) Accuracy [%] for "CNC(=O)c1cc(Oc2ccc(NC(=O)Nc3ccc(Cl)c(C(F)(F)F)c3)cc2)ccn1" : what is it?
Completion: 83.4

Prompt: Dear colleague, I am looking for the recorded Short-time stability (24h, RT, with daylight) Accuracy [%] of the following compound: "CCN(CC)CCNC(=O)c1c(C)[nH]c(/C=C2\C(=O)Nc3ccc(F)cc32)c1C"
Completion: 93.0
